Hello, the source for this data is PubChem BioAssay AID1963974, in case you need it.

- System: 648629-189-R-J1-PDC spheroids with HUVEC/MSC, viability
- Protocol description: Anticancer human tumor 648629-189-R-J1-PDC patient-derived bladder carcinoma cell line growth inhibition [PI3K]
- Condition set: curve of first compound; second compound 0.00316 µM

Compound | IC50
CC1(C)CCC(CN2CCN(c3ccc(C(=O)NS(=O)(=O)c4ccc(NCC5CCOCC5)c([N+](=O)[O-])c4)c(Oc4cnc5[nH]ccc5c4)c3)CC2)=C(c2ccc(Cl)cc2)C1 + COc1c(OCCCN2CCOCC2)ccc2c3n(c(=NC(=O)c4cnc(N)nc4)nc12)CCN3 | > 10 µM
CC1(C)CCC(CN2CCN(c3ccc(C(=O)NS(=O)(=O)c4ccc(NCC5CCOCC5)c([N+](=O)[O-])c4)c(Oc4cnc5[nH]ccc5c4)c3)CC2)=C(c2ccc(Cl)cc2)C1 + CC(Nc1ccc2c(c1)OCCn1cc(N3C(=O)OCC3C(F)F)nc1-2)C(N)=O | 4.77 µM
CC(C)n1nc(-c2ccc3oc(N)nc3c2)c2c(N)ncnc21 + COc1c(OCCCN2CCOCC2)ccc2c3n(c(=NC(=O)c4cnc(N)nc4)nc12)CCN3 | 0.0574 µM
C=CC(=O)N1CCN(c2nc(=O)n(-c3c(C)ccnc3C(C)C)c3nc(-c4c(O)cccc4F)c(F)cc23)C(C)C1 (stereo not given) + COc1c(OCCCN2CCOCC2)ccc2c3n(c(=NC(=O)c4cnc(N)nc4)nc12)CCN3 | > 10 µM
Cn1ncnc1[C@H]1c2n[nH]c(=O)c3cc(F)cc(c23)N[C@@H]1c1ccc(F)cc1 + CC(Nc1ccc2c(c1)OCCn1cc(N3C(=O)OCC3C(F)F)nc1-2)C(N)=O | > 0.1 µM
Cn1cnc2c(F)c(Nc3ccc(Br)cc3Cl)c(C(=O)NOCCO)cc21 + CC(Nc1ccc2c(c1)OCCn1cc(N3C(=O)OCC3C(F)F)nc1-2)C(N)=O | > 3 µM
CCN1CCN(Cc2ccc(Nc3ncc(F)c(-c4cc(F)c5nc(C)n(C(C)C)c5c4)n3)nc2)CC1 + CC(Nc1ccc2c(c1)OCCn1cc(N3C(=O)OCC3C(F)F)nc1-2)C(N)=O | > 1 µM
CNC(=O)c1ccc(N2C(=S)N(c3ccc(C#N)c(C(F)(F)F)c3)C(=O)C2(C)C)cc1F + COc1c(OCCCN2CCOCC2)ccc2c3n(c(=NC(=O)c4cnc(N)nc4)nc12)CCN3 | > 10 µM
Cn1nccc1Nc1nccc(-c2ccn(C(CO)c3ccc(Cl)c(F)c3)c(=O)c2)n1 (stereo not given) + COc1c(OCCCN2CCOCC2)ccc2c3n(c(=NC(=O)c4cnc(N)nc4)nc12)CCN3 | > 10 µM
CCCS(=O)(=O)Nc1ccc(F)c(C(=O)c2c[nH]c3ncc(-c4ccc(Cl)cc4)cc23)c1F + CC(Nc1ccc2c(c1)OCCn1cc(N3C(=O)OCC3C(F)F)nc1-2)C(N)=O | 5.19 µM

====

Property: viability, T/C; scope: individual molecules
- System: 648629-189-R-J1-PDC spheroids with HUVEC/MSC, viability
- Protocol description: Anticancer human tumor 648629-189-R-J1-PDC cell line growth inhibition [PI3K];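 also: spheroids exposed to agents for seven days before reading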;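 as to viability, T/C: percent of vehicle control luminescence where 100% = DMSO treated spheroids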
- Condition set: second compound 0.00316 µM; first compound 3.16 µM; stronger effect = lower value
Reported endpoint: viability, T/C (%)

Molecule | Reported endpoint | Value measured
CC1(C)CCC(CN2CCN(c3ccc(C(=O)NS(=O)(=O)c4ccc(NCC5CCOCC5)c([N+](=O)[O-])c4)c(Oc4cnc5[nH]ccc5c4)c3)CC2)=C(c2ccc(Cl)cc2)C1 + COc1c(OCCCN2CCOCC2)ccc2c3n(c(=NC(=O)c4cnc(N)nc4)nc12)CCN3 | viability, T/C | 86.5
C=CC(=O)N1CCN(c2nc(=O)n(-c3c(C)ccnc3C(C)C)c3nc(-c4c(O)cccc4F)c(F)cc23)C(C)C1 (configuration not stated) + COc1c(OCCCN2CCOCC2)ccc2c3n(c(=NC(=O)c4cnc(N)nc4)nc12)CCN3 | viability, T/C | 119
Cn1ncc(Cl)c1-c1cc(C(=O)NC(CN)Cc2cccc(F)c2)sc1Cl (configuration not stated) + CC(Nc1ccc2c(c1)OCCn1cc(N3C(=O)OCC3C(F)F)nc1-2)C(N)=O | viability, T/C | 20.2
CC(C)NCC(C(=O)N1CCN(c2ncnc3c2C(C)CC3O)CC1)c1ccc(Cl)cc1 (configuration not stated) + CC(Nc1ccc2c(c1)OCCn1cc(N3C(=O)OCC3C(F)F)nc1-2)C(N)=O | viability, T/C | 27.3
CNC(=O)c1ccc(N2C(=S)N(c3ccc(C#N)c(C(F)(F)F)c3)C(=O)C2(C)C)cc1F + COc1c(OCCCN2CCOCC2)ccc2c3n(c(=NC(=O)c4cnc(N)nc4)nc12)CCN3 | viability, T/C | 121
CC1(C)CCC(Nc2ncc(C(F)(F)F)c(-c3c[nH]c4c(P(C)(C)=O)c(C#N)ccc34)n2)CN1 (configuration not stated) + CC(Nc1ccc2c(c1)OCCn1cc(N3C(=O)OCC3C(F)F)nc1-2)C(N)=O | viability, T/C | 38.7
CC(Cn1ccc(-c2ccc(C#N)c(Cl)c2)n1)NC(=O)c1cc(C(C)O)[nH]n1 (configuration not stated) + CC(Nc1ccc2c(c1)OCCn1cc(N3C(=O)OCC3C(F)F)nc1-2)C(N)=O | viability, T/C | 85.7
C#Cc1c(F)ccc2cc(O)cc(-c3ncc4c(N5CC6CCC(C5)N6)nc(OCC56CCCN5CC(F)C6)nc4c3F)c12 (configuration not stated) + COc1c(OCCCN2CCOCC2)ccc2c3n(c(=NC(=O)c4cnc(N)nc4)nc12)CCN3 | viability, T/C | 105
C[C@@H](NC(=O)c1ncnc(N)c1Cl)c1ncc(C(=O)Nc2cc(C(F)(F)F)c(Cl)cn2)s1 + CC(Nc1ccc2c(c1)OCCn1cc(N3C(=O)OCC3C(F)F)nc1-2)C(N)=O | viability, T/C | 108
CCCS(=O)(=O)Nc1ccc(F)c(C(=O)c2c[nH]c3ncc(-c4ccc(Cl)cc4)cc23)c1F + COc1c(OCCCN2CCOCC2)ccc2c3n(c(=NC(=O)c4cnc(N)nc4)nc12)CCN3 | viability, T/C | 92.7
CNC(=O)c1ccc(N2C(=S)N(c3ccc(C#N)c(C(F)(F)F)c3)C(=O)C2(C)C)cc1F + CC(Nc1ccc2c(c1)OCCn1cc(N3C(=O)OCC3C(F)F)nc1-2)C(N)=O | viability, T/C | 110
CCCS(=O)(=O)Nc1ccc(F)c(C(=O)c2c[nH]c3ncc(-c4ccc(Cl)cc4)cc23)c1F + CC(Nc1ccc2c(c1)OCCn1cc(N3C(=O)OCC3C(F)F)nc1-2)C(N)=O | viability, T/C | 87.5
